Values from patent US8592413B2

biological target: hTP (Homo sapiens, UniProt P21731); assay: Other receptors: hTP EC50; assay type: cell-based
Sequence (P21731 whole entry): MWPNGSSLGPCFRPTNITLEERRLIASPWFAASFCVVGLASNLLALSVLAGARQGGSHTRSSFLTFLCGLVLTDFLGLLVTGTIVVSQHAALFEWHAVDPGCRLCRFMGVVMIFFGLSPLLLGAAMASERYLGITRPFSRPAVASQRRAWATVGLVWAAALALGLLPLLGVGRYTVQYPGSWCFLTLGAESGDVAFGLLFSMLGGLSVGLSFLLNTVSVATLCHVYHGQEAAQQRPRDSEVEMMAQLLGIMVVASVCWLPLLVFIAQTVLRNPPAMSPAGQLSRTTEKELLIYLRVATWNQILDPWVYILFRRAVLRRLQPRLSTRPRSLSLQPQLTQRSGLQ
property name: EC50 (nM)

I = O=C(O)CCC/C=C\C[C@@H]1[C@@H](COCc2cccc(C(F)(F)F)c2)[C@H](O)C[C@H]1Cl
II = CCc1cccc(COC[C@@H]2[C@@H](CCCc3ccc(C(=O)O)s3)[C@H](Cl)C[C@H]2O)c1
III = O=C(O)c1ccc(CCC[C@@H]2[C@@H](CCCc3cc(Cl)cc(Cl)c3)[C@H](O)C[C@H]2Cl)s1
Which order do these items take when sorted by rising EC50? List them. Please respond by ranking the labels in the order requested.
I, II, III
(I: 11 nM, II: 2520 nM, III: 7110 nM)

----------
Molecular target: hEP3A (Homo sapiens)
Sequence (P43115 1-390): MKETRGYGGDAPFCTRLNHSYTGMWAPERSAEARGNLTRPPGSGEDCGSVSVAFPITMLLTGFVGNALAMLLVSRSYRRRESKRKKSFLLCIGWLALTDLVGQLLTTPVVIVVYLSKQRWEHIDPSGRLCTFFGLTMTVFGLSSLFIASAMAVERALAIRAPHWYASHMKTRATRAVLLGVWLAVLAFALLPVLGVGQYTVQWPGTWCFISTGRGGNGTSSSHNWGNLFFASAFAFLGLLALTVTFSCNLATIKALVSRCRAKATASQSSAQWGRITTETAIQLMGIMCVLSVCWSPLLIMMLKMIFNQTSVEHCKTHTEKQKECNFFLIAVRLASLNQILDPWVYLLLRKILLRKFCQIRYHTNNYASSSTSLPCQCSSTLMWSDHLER
Experiment: Other receptors: hEP3A EC50
Assay type: cell-based
property name: EC50 (nM)

a = O=C(O)c1ccc(CCC[C@@H]2[C@@H](CCCc3cc(Cl)cc(Cl)c3)[C@H](O)C[C@H]2Cl)s1
b = O=C(O)CCC/C=C\C[C@@H]1[C@@H](COCc2cccc(C(F)(F)F)c2)[C@H](O)C[C@H]1Cl
Of the two listed items, a and b , which carries the larger EC50 figure? Use the label to indicate which entry you chose.
a

----------
target: EP2 (Homo sapiens); test: EP2 cAMP; format: cell-based
Sequence (P43116 whole entry): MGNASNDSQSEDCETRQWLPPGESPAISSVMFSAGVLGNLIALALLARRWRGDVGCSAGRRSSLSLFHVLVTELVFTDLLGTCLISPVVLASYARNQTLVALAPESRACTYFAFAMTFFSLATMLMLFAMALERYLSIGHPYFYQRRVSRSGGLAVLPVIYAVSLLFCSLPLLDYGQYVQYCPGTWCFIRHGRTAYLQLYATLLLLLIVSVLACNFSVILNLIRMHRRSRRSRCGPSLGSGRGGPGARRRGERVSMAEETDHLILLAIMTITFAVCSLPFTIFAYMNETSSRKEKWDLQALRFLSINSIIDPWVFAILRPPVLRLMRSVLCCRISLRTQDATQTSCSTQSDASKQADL
pEC50: −log10 of the molar value.
property name: pEC50

Field: example entries. Status: answers known.
[
  {
    "molecule": "O=C(O)CCC/C=C\\C[C@@H]1[C@@H](COCc2cccc(C(F)(F)F)c2)[C@H](O)C[C@H]1Cl",
    "pEC50": 8.30
  },
  {
    "molecule": "O=C(O)c1ccc(CCC[C@@H]2[C@@H](CCCc3cccc(C(F)(F)F)c3)[C@H](O)C[C@H]2Cl)s1",
    "pEC50": 9.52
  },
  {
    "molecule": "O=C(O)c1ccc(CCC[C@@H]2[C@@H](C=C=Cc3ccccc3)[C@H](O)C[C@H]2Cl)s1",
    "pEC50": 8.77
  },
  {
    "molecule": "O=C(O)c1ccc(CCC[C@@H]2[C@@H](CCCc3ccccc3)[C@H](O)C[C@H]2Cl)s1",
    "pEC50": 9.22
  }
]

1 = CCc1cccc(COC[C@@H]2[C@@H](CCCc3ccc(C(=O)O)s3)[C@H](Cl)C[C@H]2O)c1
2 = O=C(O)c1ccc(CCC[C@@H]2[C@@H](C=C=Cc3cccc(C(F)(F)F)c3)[C@H](O)C[C@H]2Cl)s1
Of the two listed items, 1 and 2 , which carries the larger pEC50 figure? Use the label to indicate which entry you chose.
1

----------
Target: hDP (Homo sapiens)
Sequence (Q13258 1-359): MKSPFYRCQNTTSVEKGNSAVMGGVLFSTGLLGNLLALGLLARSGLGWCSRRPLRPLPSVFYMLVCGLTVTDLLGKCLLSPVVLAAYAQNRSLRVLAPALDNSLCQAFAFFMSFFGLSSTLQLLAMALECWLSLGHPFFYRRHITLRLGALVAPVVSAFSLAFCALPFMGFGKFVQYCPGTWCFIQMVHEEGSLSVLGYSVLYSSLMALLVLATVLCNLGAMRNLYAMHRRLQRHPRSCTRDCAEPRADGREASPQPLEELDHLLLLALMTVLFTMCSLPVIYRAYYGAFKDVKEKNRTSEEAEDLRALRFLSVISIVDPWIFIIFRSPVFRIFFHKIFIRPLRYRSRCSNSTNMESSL
Test: Other receptors: hDP EC50
Assay type: cell-based
property name: EC50 (nM)

[
  {
    "molecule": "CN(Cc1ccccc1)C[C@@H]1[C@@H](CCCc2ccc(C(=O)O)s2)[C@H](Cl)C[C@H]1O",
    "property name": "EC50",
    "data value": 5620
  }
]

A = O=C(O)c1ccc(CCC[C@@H]2[C@@H](CCCc3ccccc3)[C@H](O)C[C@H]2Cl)s1
B = O=C(O)c1ccc(CCC[C@@H]2[C@@H](C=C=Cc3ccccc3)[C@H](O)C[C@H]2Cl)s1
Please choose the item with the lower EC50 value from this pair: A and B Use the label to indicate which entry you chose.
A
(A: 6780 nM, B: 10200 nM)

----------
biological target: hIP (Homo sapiens); experiment: Other receptors: hIP EC50; format: cell-based
Sequence (P43119 whole entry): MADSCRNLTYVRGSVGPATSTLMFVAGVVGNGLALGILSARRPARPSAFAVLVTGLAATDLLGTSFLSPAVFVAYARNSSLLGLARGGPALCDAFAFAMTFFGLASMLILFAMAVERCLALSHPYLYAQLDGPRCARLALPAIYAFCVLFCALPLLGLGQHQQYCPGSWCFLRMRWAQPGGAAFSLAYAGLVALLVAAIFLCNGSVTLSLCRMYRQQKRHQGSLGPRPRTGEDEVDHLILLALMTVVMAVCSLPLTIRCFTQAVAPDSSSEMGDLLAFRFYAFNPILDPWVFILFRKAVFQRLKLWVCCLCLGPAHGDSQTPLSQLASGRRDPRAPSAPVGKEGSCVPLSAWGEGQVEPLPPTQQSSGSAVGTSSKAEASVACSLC
property name: EC50 (nM)
Express it in nM; write the number only.

Supply measured EC50 of `O=C(O)CCC/C=C\C[C@@H]1[C@@H](COCc2cccc(C(F)(F)F)c2)[C@H](O)C[C@H]1Cl` in your reply.
7

----------
Biological target: hEP1 (Homo sapiens)
Sequence (P34995 1-402): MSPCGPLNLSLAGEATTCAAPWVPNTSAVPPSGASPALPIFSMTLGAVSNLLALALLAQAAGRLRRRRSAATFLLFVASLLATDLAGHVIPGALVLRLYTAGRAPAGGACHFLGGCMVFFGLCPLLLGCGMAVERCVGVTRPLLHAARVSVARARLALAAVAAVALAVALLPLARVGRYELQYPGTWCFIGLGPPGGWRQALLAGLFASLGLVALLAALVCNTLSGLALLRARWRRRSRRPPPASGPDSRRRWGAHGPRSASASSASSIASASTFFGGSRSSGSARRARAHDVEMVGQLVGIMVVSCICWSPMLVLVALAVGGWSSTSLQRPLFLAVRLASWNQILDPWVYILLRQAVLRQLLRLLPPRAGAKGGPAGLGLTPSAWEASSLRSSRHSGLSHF
Assay: Other receptors: hEP1 EC50
Assay type: cell-based
property name: EC50 (nM)

P = O=C(O)c1ccc(CCC[C@@H]2[C@@H](CCCc3cccc(C(F)(F)F)c3)[C@H](O)C[C@H]2Cl)s1
Q = O=C(O)CCC/C=C\C[C@@H]1[C@@H](COCc2cccc(C(F)(F)F)c2)[C@H](O)C[C@H]1Cl
Please choose the item with the lower EC50 value from this pair: P and Q Use the label to indicate which entry you chose.
Q
(Q: 97 nM, P: 4260 nM)

----------
Molecular target: hFP (Homo sapiens, UniProt P43088)
Sequence (P43088 whole entry): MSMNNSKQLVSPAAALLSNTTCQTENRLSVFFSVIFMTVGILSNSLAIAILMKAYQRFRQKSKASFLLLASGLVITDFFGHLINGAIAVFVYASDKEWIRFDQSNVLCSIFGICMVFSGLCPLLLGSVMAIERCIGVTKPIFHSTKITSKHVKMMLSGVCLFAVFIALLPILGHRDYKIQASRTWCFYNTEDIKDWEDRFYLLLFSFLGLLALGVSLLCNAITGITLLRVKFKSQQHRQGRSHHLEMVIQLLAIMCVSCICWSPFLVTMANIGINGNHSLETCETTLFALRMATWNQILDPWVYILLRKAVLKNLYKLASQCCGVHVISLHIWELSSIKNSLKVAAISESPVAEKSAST
Assay: Other receptors: hFP EC50
Type: cell-based
Source text: US 2007/0129552, incorporated by reference herein, describes the methods used to obtain the in vitro data in the table below.
property name: EC50 (nM)
Express it in nM; write the number only.

Supply measured EC50 of `O=C(O)CCC/C=C\C[C@@H]1[C@@H](COCc2cccc(C(F)(F)F)c2)[C@H](O)C[C@H]1Cl` in your reply.
22500

----------
target: UniProtKB P35408; test: EP4 flipr
Sequence (P35408 whole entry): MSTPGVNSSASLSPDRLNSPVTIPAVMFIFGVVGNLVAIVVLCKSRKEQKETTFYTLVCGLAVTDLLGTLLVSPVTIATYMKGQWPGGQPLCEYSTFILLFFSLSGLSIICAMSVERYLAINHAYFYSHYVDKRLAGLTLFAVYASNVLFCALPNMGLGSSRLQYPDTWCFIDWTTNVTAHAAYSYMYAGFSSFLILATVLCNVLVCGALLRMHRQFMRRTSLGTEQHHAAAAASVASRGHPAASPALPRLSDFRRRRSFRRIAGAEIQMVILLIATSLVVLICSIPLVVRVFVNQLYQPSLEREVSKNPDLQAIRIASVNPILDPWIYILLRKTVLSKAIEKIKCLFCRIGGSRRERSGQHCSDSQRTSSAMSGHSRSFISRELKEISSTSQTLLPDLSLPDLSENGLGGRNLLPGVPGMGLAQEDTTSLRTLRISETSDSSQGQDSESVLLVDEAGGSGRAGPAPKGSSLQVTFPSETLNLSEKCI
property name: EC50 (µM)

Field: example entries. Status: answers known.
[
  {
    "molecule": "CCc1cccc(COC[C@@H]2[C@@H](CCCc3ccc(C(=O)O)s3)[C@H](Cl)C[C@H]2O)c1",
    "data value": 6.54
  },
  {
    "molecule": "O=C(O)c1ccc(CCC[C@@H]2[C@@H](CCCc3cc(Cl)cc(Cl)c3)[C@H](O)C[C@H]2Cl)s1",
    "data value": 10.1
  }
]

P = O=C(O)c1ccc(CCC[C@@H]2[C@@H](C=C=Cc3ccccc3)[C@H](O)C[C@H]2Cl)s1
Q = O=C(O)c1ccc(CCC[C@@H]2[C@@H](CCCc3ccccc3)[C@H](O)C[C@H]2Cl)s1
R = O=C(O)CCC/C=C\C[C@@H]1[C@@H](COCc2cccc(C(F)(F)F)c2)[C@H](O)C[C@H]1Cl
Thanks in advance: please rank these 3 entries by EC50, highest to lowest. Please respond by ranking the labels in the order requested.
P, Q, R
(P: 11.1 µM, Q: 4.96 µM, R: 2.33 µM)

----------
Ki data for UniProt P35408 follow.
property name: Ki (nM)

[
  {
    "molecule": "CCc1cccc(CCC[C@@H]2[C@@H](CCCc3ccc(C(=O)O)s3)[C@H](Cl)C[C@H]2O)c1",
    "Ki, nM": 1840
  },
  {
    "molecule": "CCc1cccc(COC[C@@H]2[C@@H](CCCc3ccc(C(=O)O)s3)[C@H](Cl)C[C@H]2O)c1",
    "Ki, nM": 606
  },
  {
    "molecule": "O=C(O)c1ccc(CCC[C@@H]2[C@@H](CCCc3cccc(C(F)(F)F)c3)[C@H](O)C[C@H]2Cl)s1",
    "Ki, nM": 740
  },
  {
    "molecule": "O=C(O)c1ccc(CCC[C@@H]2[C@@H](CCCc3cc(Cl)cc(Cl)c3)[C@H](O)C[C@H]2Cl)s1",
    "Ki, nM": 999
  }
]

a = O=C(O)c1ccc(CCC[C@@H]2[C@@H](C=C=Cc3ccccc3)[C@H](O)C[C@H]2Cl)s1
b = O=C(O)c1ccc(CCC[C@@H]2[C@@H](CCCc3ccccc3)[C@H](O)C[C@H]2Cl)s1
Please choose the item with the lower Ki value from this pair: a and b Use the label to indicate which entry you chose.
a
